target: OCTN2 (organic cation/carnitine transporter 2) (Homo sapiens, UniProt O76082); experiment: TP_TRANSPORTER: inhibition of Carnitine uptake (Carnitine: 0.02 uM, Cefluprenam: 2500 uM) in OCTN2-expressing HeLa cells; type: functional, cell-based; parameters: scale not given: the % may be the effect or the level left; conditions: probe carnitine (0.02 uM), read-out: Activity
Sequence (O76082 whole entry): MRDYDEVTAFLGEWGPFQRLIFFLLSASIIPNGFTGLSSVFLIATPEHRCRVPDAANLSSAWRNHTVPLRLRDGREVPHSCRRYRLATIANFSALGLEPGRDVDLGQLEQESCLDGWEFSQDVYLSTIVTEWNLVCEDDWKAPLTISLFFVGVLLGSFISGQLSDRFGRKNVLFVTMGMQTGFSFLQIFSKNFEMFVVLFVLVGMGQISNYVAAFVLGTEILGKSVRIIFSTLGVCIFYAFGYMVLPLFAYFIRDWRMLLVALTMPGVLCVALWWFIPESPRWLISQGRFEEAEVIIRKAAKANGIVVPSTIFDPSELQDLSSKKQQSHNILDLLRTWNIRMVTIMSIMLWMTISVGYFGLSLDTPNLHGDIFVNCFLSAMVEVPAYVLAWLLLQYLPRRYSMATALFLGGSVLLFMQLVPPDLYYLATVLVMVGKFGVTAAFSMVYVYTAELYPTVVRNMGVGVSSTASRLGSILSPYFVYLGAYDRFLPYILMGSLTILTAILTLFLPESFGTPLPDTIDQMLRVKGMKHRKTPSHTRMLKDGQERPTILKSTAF
recorded.metric: activity at 2500 µM (%)
A number alone suffices; assume %.

Please give the measured activity at 2500 µM for this compound: CC[N+](C)(C/C=C/C1=C(C(=O)[O-])N2C(=O)[C@@H](NC(=O)/C(=N\OCF)c3nsc(N)n3)[C@H]2SC1)CC(N)=O (stereo partly specified) [CEFLUPRENAM]
74
